- Tested on: RARg homodimer (NR concentration 270 nM)
- assay: PBM binding z-score (relative to random genomic background probes); higher = stronger binding; sequences stand for … in GC…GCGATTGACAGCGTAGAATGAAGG
Give met when the value for PBM binding z-score is at least 1. Give not met when it is less.

constructSequence | assignedCategory
TAGCCTAGGTCATTCAGGGGCCAGTATCGAAAGC | met
TGTCAAAGTTCAAAGTTAACGTAAGTATCCACAC | met
GGAACGAGGGCAAAGTTTATAGCATCTGTCGACG | met
GGAAAGAGGGCAAAGTTGATAGCATCTGTCGACG | met
CCTGACAGGTGAGAAGGTAACTCAGCCTCGATTA | not met
TCTTGTAGATCAACATGAGGTTAAGAAAGATCGA | not met
TCGAGTAGGTTACCCATGGGGCATTCAGCTTTCT | not met
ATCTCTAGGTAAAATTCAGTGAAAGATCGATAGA | not met
TCATTTAGGTAAAAGGTGAAAGTCGGTGTGGTAA | met
CAAACTAGGCCACAGAGGTCAAAGTCCGTGCGTA | met
AGAATGAGGTTATACGTAGATAAGGGAAGAAAGT | met
TCTGCTAGGTCACTTGGTCAGCTAACGAGCTGCC | met
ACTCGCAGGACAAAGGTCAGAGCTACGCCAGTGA | met
TAGCCTCGGTCATGGGCCAGTATACCACGCGAAC | met
GATACAGGGTCAGCAAGAGGCCAGAGTATGGAAA | met
TCGAGTAGGTTTGGGGCATTCAGAATGGCGTCGA | not met
CCGACTGGGGCAGAAAAGTTACCATACCATCCGG | not met

###

Reported PBM binding z-score values for the following sequences.
- Tested on: PPARg homodimer (NR concentration 180 nM)
- assay: PBM binding z-score (relative to random genomic background probes); higher = stronger binding; sequences stand for … in GC…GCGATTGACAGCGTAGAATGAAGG
outcomeMeasure: PBM binding z-score

constructSequence | observedValue
AGTCAAAGTTTAGGACGAGGTAACGTAAAGCACG | 0.281
CTACCAAGGTGAACAAGGCCGTTGATTACTATTC | 0.346
CCTAGCAGGCCAGGGTAACTCAAGCATTTCGCTT | -0.387
CCTATTAGTTGACCATAAGGGCAACAGAAGCTCG | 1.95

###

Reported PBM binding z-score values for the following sequences.
- Test system: LXRa:RXRa (NR concentration 270 nM, RXRa partner concentration 90 nM)
- assay: PBM binding z-score (relative to random genomic background probes); higher = stronger binding; sequences stand for … in GC…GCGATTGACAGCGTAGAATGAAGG
outcomeMeasure: PBM binding z-score

constructSequence | observedValue
CGTCCAAGGTCAGAGAGGTCAATGAATGCCGAGT | 5.92
AATACAGGTTCACTAGGCCAGAGTAGGTACGAAT | 2.58
AATACAGGGTCATCGTAGGCCAGAGTGCGCACAG | 6.46
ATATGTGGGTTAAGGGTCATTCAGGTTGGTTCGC | 4.74
TAGACTAGGTCAGATCGGGCCAGTATACGCTATA | 0.872
AGAATGAGGTTAAGATCAGGTAAACAGAATACAT | 4
CGTCAAAGTTCAACTAAGGTAACGGAAAGCACGC | 6.18
TCTACTAGTTGAAGGGCAACCGACGAGTCCGTTT | 0.156
TCTAGTTGGTCACGGAGGTCAAACACGACGGGTA | 4.67
CGAACTAGGTCAGAACAGGACAGTGAAGGATGAT | 0.689
CAAACTAGGTCAAGAGGTCAAAGCCCGCTTCCCG | 6.28
ATCTCTAGGTACCCAAGTTCAGTGAATGCCGAAC | 1.7
TCTTGTAGATTAAAGGTTAAGAAAGCCGAAGCCT | 1.98

These data points were gathered from the supplement of paper PMC6555819.
